# growth listing for each entry below
Test system: MDA-MB-468 breast
PROCEDURE TEXT: NCI-60 one-dose screen, 48 h (100 = growth as untreated, 0 = no growth, -100 = all killed)
MEASUREMENT CONTEXT: 10 µM unless noted
About 83,000 compounds went through this panel and 20% of them were active in at least one assay; those are over-represented in the sample as a whole.

# CHEM SMILES, growth [%]
records = [
    ("O=C(CSc1nccc(Nc2ccc(S(=O)(=O)Nc3nccs3)cc2)n1)c1ccc(C(F)(F)F)cc1", 97),
    ("COc1cc(/C=C2\\CN(C)C/C(=C\\c3cc(CN4CCOCC4)c(O)c(OC)c3)C2=O)cc(CN2CCOCC2)c1O", 38.8),
    ("Cc1ccc(/C=C2\\COc3ccc(O)c(O)c3C2=O)cc1", -18.5),
    ("COc1ccc(C(=O)Nc2ncc(Cc3ccc(Cl)cc3)s2)cc1", 24.6),
    ("CCn1c(Cc2ccccc2Nc2c(Cl)cccc2Cl)nnc1SCC(=O)Nc1cccc(OC)c1", 75),
]

====

Tested on: MDA-MB-468 breast
PROCEDURE TEXT: NCI-60 one-dose screen, 48 h (100 = growth as untreated, 0 = no growth, -100 = all killed)
MEASUREMENT CONTEXT: 10 µM unless noted
This is part of a sample that, as a whole, favours compounds with a hit. Of some 83,000 tested, about 20% had one in any assay.
MEASUREMENT KIND: growth (%)

# COMPOUND, NUMERIC READOUT
records = [
    ("Cc1nc(O)cc(=O)[nH]1", 113),
    ("Cn1cc(-c2ccc3occ(-c4cccc(-c5ccncc5)c4)c3n2)cn1", 4.07),
    ("Fc1ccc(Cn2cc(CSc3nc4ccccc4o3)nn2)cc1", 109),
    ("O=C(c1nc2ccccc2[nH]1)C1[C@@H](c2cccc(O)c2)C2CC3CCCCC3N2[C@@]12C(=O)Nc1cc(Cl)ccc12 (some centres undefined)", 32.5),
    ("Cc1ccc(Nc2ncnc3c2sc2ncccc23)cc1", 93),
    ("COc1cc(/C=N\\Nc2ccccc2)ccc1OC(=O)c1ccccc1", 44.2),
    ("O=C(Nc1ccc(Cl)c(Cl)c1)OCn1ncc2ccc([N+](=O)[O-])cc21", 87),
    ("CCCCCCCCCCCCC1CCC(=O)O1 (centres undefined)", 105),
    ("O=C(Nc1nc2ccc(O)cc2s1)c1cccc(C(F)(F)F)c1", 84.6),
    ("O=[N+]([O-])c1ccc(-c2nc(Cl)c3c(n2)CCCC3)o1", 54.1),
    ("COC(=O)C1C2CC3c4[nH]c5cc(OC)ccc5c4CCN3CC2CC(OC2CCCCO2)C1OC (centres undefined)", 95.5),
    ("O=C(Nc1ccc2c(O)cc(S(=O)(=O)O)cc2c1)c1ccc([N+](=O)[O-])cc1", 95.4),
    ("COc1ccc(C(=O)/C=C/c2ccc(C)cc2)cc1OC", 47.6),
    ("CCOC(=O)c1cnc2sc(-c3ccc(OC)cc3)nc2c1Cl", 90.4),
    ("CN(C)c1ccc(C#Cc2c(F)cccc2Cl)cc1", 8.33),
    ("CC/C(C)=C(\\C)C(=O)O", 106),
    ("CS(=O)(=O)OCCN(CCOS(C)(=O)=O)c1ccc(/C=N/Nc2ccc([N+](=O)[O-])cc2[N+](=O)[O-])cc1", 87.9),
    ("Clc1cnc(Nc2ccc(OCCN3CCCC3)cc2)nc1NCc1ccco1", 16.6),
    ("Cc1ccc2nc(NC(=O)CSC(=S)N3CCN(Cc4ccccc4)CC3)sc2c1", -76.4),
    ("COc1cnc2c(c1)C(=O)c1c-2n(CCCNC2=NCCS2)c(=O)c2cc(Cl)ccc12", -4.65),
    ("Cc1cc(Cl)nc(N(CCCNc2ccnc3cc(Cl)ccc23)Cc2ccco2)n1", 0.466),
    ("CN=c1ccc2nc3ccc(N)cc3sc-2c1", -5.28),
    ("COC(=O)c1ccc(NC(=O)CSc2nc(-c3ccc(F)cc3)nc3ccccc23)cc1", 80.1),
    ("COc1cc(OC)c(S(N)(=O)=O)cc1C(C)=O", 98.4),
    ("O=C(c1ccc2ncc(-c3nc(NC4CC4)ncc3F)n2c1)N1CCOCC1", 32.8),
    ("Oc1c(Cl)cc(Cl)c2ccc(Cn3cc(-c4cc(C(F)(F)F)cc(C(F)(F)F)c4)nn3)nc12", 18.6),
    ("O=Cc1ccc(Cl)c(Cl)c1", 119),
    ("C(=C1c2ccccc2-c2ccccc21)c1ccccn1", 22.4),
    ("C=C1C(=O)O[C@H]2[C@H]1CC/C(CNC(=O)Cc1c[nH]c3ccccc13)=C\\CC[C@@]1(C)O[C@@H]21", -79.9),
    ("Oc1ccc2c(c1)CCc1ccccc1-2", 105),
    ("O=C1/C(=C/c2cc(F)cc(F)c2)Cc2cc3c(cc21)OCO3", 8.61),
    ("COC1=CC(c2ccc[nH]2)=N/C1=C\\c1[nH]c(C)c(C(=O)CCCCC(=O)Nc2ccccc2)c1C", -10.7),
    ("O=S(=O)(Nc1ccc(-n2cnc3cc(-c4ccc(O)cc4)ccc32)cc1)C1CC1", 111),
    ("Cc1ccc(C2Oc3ccccc3C3CC(c4cccs4)=NN32)cc1 (centres undefined)", 109),
    ("COc1cc(NC(=O)CCSc2nc3ccc(C)cc3c(=O)n2Cc2ccccc2)cc(OC)c1OC", 68.6),
    ("C=CCN(C)S(=O)(=O)/N=C1\\NC(=O)NC1=C(Cl)Cl", 28.7),
    ("COc1ccc(/C=C2\\SC(=Nc3ccccc3)NC2=O)cc1", -84.8),
    ("O=C(O)/C=C/c1ccc2c(c1)CCC2", 104),
    ("Cc1ccc(C2=N[C@H]3CCC[C@@H]3N(c3ccccc3)C(C(Cl)Cl)=N2)cc1", 116),
    ("O=c1[nH]c(-c2ccncc2)nc2sc3c(c12)CCCCCC3", 99.2),
    ("O=C1C=CC(=O)N1CO", 117),
    ("C=C(C=O)[C@@H]1CC[C@]2(C)[C@H](CC=C3[C@H]4[C@@H](C)[C@H](C)CC[C@]4(C(=O)OC)CC[C@]32C)[C@@]1(C)CCC#N", -18.1),
    ("O=C(CSc1nc2ccccc2c(=O)n1-c1ccc(Cl)cc1)Nc1ccc(-c2nc3ccccc3[nH]2)cc1", -41.7),
    ("CC1(O)CCCCC1O (centres undefined)", 108),
]
